Data provenance: PubChem BioAssay (Tox21)

Assay: Caspase-3/7 induction in CHO-K1 cells by small molecules, qHTS cell viability counter screen (AID 1346979); note: nearly all actives have a fitted effect of over 35% in size; note: potency is the fitted concentration of half-maximal effect
Details: CellTiter-Fluor fluorescence, 17 h; series mostly up to 92.4 µM
Records with an inconclusive call do not appear. The source made the active and inactive calls. Calls come from the whole dose curve; as a rule, active = well fitted cell-killing curve with a large enough effect in the repeat runs; inconclusive = weak or mixed curves, or effect the other way; inactive = no such curve, though single readings can be large or run the other way.
MEASUREMENT TYPE: Potency

> print(dat)
                                    molecule  measurement.type   recorded.result
 1                          O=C(O)c1ccccc1Cl           Potency          inactive
 2  CN1C[C@H]2c3ccccc3Oc3ccc(Cl)cc3[C@@H]2C1           Potency          inactive
 3            CCCCCCc1ccc(-c2ccc(C#N)cc2)cc1           Potency          inactive
 4  Cc1cccc(C)c1OCC(=O)N[C@@H](Cc1ccccc1)[C@@H](O)C[C@H](Cc1ccccc1)NC(=O)[C@H](C(C)C)N1CCCNC1=O           Potency  26.6 µM (active)
 5  O[C@@H](COc1cccc2ncccc12)CN1CCN(C2c3ccccc3[C@@H]3[C@H](c4ccccc42)C3(F)F)CC1 (some centres undefined)           Potency  16.8 µM (active)
 6  C[N+]1(CC2COC(c3ccccc3)(C3CCCCC3)O2)CCCCC1 (centres undefined)           Potency          inactive
 7                                  COC(C)OC           Potency          inactive
 8                      C=CCOC(=O)CCC1CCCCC1           Potency          inactive
 9            CN1CCN(C(c2ccccc2)c2ccccc2)CC1           Potency          inactive
10                             O=C1CCC(=O)O1           Potency          inactive
11                   Nc1cccc([N+](=O)[O-])c1           Potency          inactive
12         Nc1ccc([N+](=O)[O-])c(C(F)(F)F)c1           Potency  29.8 µM (active)
13      CC(CC=O)c1ccccc1 (centres undefined)           Potency          inactive
14  COCCCN1CCC(NC(=O)c2cc(Cl)c(N)c3c2OCC3)CC1           Potency          inactive
15  COc1ccc(C(=O)N2CCN(CC(=O)N3CCOCC3)CC2)cc1           Potency          inactive
16                  c1ccc(CNCCNCc2ccccc2)cc1           Potency          inactive
17  CCOc1ccc(N=Nc2ccc(/C=C/c3ccc(N=Nc4ccc(OCC)cc4)cc3S(=O)(=O)O)c(S(=O)(=O)O)c2)cc1           Potency    38 µM (active)
18       Nc1c(CC(=O)O)cccc1C(=O)c1ccc(Br)cc1           Potency          inactive
19  O=C(O)C1(C(=O)O)CCC1.[NH2-].[NH2-].[Pt+2]           Potency          inactive
20  Cc1oc2c(NC(=O)c3c(Cl)cccc3Cl)cccc2c1C(C)(C)O           Potency  61.1 µM (active)
21  CC(C)(O)c1ccc(CNC(=O)c2cccnc2Oc2ccc(F)cc2)cc1           Potency          inactive
22  C#C[C@]1(O)CC[C@H]2[C@@H]3CCc4cc(OC5CCCC5)ccc4[C@H]3CC[C@@]21C           Potency  29.8 µM (active)
23         OC(C#CCN1CCCC1)(c1ccccc1)c1ccccc1           Potency          inactive
24                           C=C(C)C(=O)OCCO           Potency          inactive
25  O=C1OC(=O)C2C3C=CC(C3)C12 (centres undefined)           Potency          inactive
26                      Cc1cccc(Nc2ccccc2)c1           Potency          inactive
27   O=S(c1cc(Cl)cc(Cl)c1O)c1cc(Cl)cc(Cl)c1O           Potency          inactive
28  NC(=O)C(c1ccccc1)(c1ccccc1)[C@@H]1CCN(CCc2ccc3c(c2)CCO3)C1           Potency          inactive
29  O=C(O)C(S)C(S)C(=O)O (centres undefined)           Potency          inactive
30             S=C([S-])NCCNC(=S)[S-].[Mn+2]           Potency          inactive
31  CC1=CCCC(C)(C)C12CCC(C)O2 (centres undefined)           Potency          inactive
32                                CC(C)(C)Cl           Potency          inactive
33                    CC(=O)[O][Al][O]C(C)=O           Potency          inactive
34                          CCOC(=O)c1cccnc1           Potency          inactive
